Test: In vivo pharmacokinetic experiment on cynomolgus monkeys
Conditions: both sexes, cynomolgus monkey, plasma, po, intragastric, 50 mg/kg, read-out: Maximum plasma concentration Cmax
Assay endpoint: Cmax (ng/mL)

{"Molecule": "O=C(O)[C@@H](Cc1cccc(CN(Cc2cccc(C[C@H](C(=O)O)[C@H]3CCNC3)c2)Cc2cccc(C[C@H](C(=O)O)[C@H]3CCNC3)c2)c1)[C@H]1CCNC1 [Reference 1, reference compound]", "Assay endpoint": "Cmax", "Reported value": 2190}

====

Assay: In vivo pharmacokinetic experiment on beagles
Conditions: male, beagle, dog, plasma, po, intragastric, 10 mg/kg, read-out: Maximum plasma concentration Cmax

{"Compound": "O=C(O)[C@@H](Cc1cccc(CN(Cc2cccc(C[C@H](C(=O)O)[C@H]3CCNC3)c2)Cc2cccc(C[C@H](C(=O)O)[C@H]3CCNC3)c2)c1)[C@H]1CCNC1 [Reference 1, reference compound]", "Unit symbol": "ng/mL", "Cmax": 1630}

====

Assay: In vivo pharmacokinetic experiment on cynomolgus monkeys
Settings: both sexes, cynomolgus monkey, plasma, po, intragastric, 15 mg/kg, read-out: Area under curve AUC
Method: Cynomolgus monkeys were used as test animals. After intragastric administration of the compound of the disclosure to cynomolgus monkeys, plasma concentrations at different time points were determined by LC/MS/MS. The pharmacokinetic behavior of the compound of the disclosure in cynomolgus monkeys was studied and its pharmacokinetic profile was evaluated. Test Animals: 2 Healthy Cynomolgus Monkeys Aged 24-36 Months Per Group (One Male and One Female) […]
Assay endpoint: AUC (ng·h/mL)

{"Molecule smiles": "O=C(O)[C@@H](Cc1cccc(CN(CCOc2cccc(C[C@H](C(=O)O)[C@H]3CCNC3)c2)Cc2cccc(C[C@H](C(=O)O)[C@H]3CCNC3)c2)c1)[C@H]1CCNC1", "Reported value": 33100}

====

Measured IC50, listed per entry.
Target: Apo(a) and ApoB protein assembly (Homo sapiens (Human))
Sequence (P08519 20-2040): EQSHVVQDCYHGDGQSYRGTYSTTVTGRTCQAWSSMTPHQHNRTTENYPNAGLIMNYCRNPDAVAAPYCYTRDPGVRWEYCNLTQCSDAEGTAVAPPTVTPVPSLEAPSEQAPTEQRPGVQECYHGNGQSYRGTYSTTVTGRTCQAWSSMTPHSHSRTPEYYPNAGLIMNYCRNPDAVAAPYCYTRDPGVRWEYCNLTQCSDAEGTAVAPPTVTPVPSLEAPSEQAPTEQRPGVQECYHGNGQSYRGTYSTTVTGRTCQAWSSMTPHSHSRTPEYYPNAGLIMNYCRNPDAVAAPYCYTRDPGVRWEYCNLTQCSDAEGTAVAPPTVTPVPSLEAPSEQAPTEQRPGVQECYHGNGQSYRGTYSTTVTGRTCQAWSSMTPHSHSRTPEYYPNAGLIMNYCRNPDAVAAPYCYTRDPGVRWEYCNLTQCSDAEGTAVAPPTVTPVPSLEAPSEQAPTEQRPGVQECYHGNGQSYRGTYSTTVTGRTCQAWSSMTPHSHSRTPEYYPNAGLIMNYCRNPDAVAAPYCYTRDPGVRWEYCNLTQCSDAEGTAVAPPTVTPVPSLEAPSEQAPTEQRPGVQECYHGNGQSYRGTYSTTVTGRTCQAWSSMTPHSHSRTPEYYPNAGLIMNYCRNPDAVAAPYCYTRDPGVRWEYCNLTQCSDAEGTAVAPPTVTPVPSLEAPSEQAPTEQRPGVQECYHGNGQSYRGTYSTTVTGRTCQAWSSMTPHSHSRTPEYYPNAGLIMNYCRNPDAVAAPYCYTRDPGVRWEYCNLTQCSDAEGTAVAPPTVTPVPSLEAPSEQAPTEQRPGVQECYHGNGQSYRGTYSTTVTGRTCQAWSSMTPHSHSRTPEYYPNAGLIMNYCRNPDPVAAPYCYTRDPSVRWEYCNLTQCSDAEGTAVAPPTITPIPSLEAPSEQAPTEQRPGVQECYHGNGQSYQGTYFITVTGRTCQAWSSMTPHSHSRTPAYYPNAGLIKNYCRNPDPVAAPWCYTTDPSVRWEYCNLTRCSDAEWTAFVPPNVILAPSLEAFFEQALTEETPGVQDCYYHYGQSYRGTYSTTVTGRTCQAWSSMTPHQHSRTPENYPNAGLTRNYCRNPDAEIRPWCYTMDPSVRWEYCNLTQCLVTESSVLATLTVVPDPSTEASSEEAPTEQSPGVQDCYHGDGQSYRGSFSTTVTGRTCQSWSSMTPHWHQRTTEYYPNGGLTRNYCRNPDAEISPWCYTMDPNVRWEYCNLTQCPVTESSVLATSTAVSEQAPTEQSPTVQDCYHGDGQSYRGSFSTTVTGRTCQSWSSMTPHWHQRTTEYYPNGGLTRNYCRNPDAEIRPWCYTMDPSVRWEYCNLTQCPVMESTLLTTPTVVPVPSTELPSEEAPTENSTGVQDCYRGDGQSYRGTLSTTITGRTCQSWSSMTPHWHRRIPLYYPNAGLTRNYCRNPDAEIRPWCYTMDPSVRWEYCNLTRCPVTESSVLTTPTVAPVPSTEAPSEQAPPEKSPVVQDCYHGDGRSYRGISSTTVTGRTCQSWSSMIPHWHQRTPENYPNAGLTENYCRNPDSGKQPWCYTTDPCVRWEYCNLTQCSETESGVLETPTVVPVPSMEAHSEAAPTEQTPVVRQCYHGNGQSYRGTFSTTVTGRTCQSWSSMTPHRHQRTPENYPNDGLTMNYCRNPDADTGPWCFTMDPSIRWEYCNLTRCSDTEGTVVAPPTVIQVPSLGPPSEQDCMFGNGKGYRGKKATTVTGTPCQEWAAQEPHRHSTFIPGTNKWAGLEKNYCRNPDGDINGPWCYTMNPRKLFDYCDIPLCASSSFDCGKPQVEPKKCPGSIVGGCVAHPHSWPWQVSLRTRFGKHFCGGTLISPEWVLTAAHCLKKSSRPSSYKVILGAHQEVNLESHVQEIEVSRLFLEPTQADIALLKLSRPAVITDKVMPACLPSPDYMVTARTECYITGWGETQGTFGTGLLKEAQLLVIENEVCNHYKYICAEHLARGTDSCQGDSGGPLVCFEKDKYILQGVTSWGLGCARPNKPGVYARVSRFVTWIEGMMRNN
Assay: Test for activity of compounds in inhibiting Lp(a) assembly (double antibody ELISA)
Conditions: plasma from human transgenic hApo(a) and hApoB mice; 37° C., 2 h; ELISA absorbance at 450 nm

{"Compound": "O=C(O)[C@@H](Cc1cc(F)cc(CN(Cc2cc(F)cc(C[C@H](C(=O)O)[C@H]3CCNC3)c2)Cc2cc(F)cc(C[C@H](C(=O)O)[C@H]3CCNC3)c2)c1)[C@H]1CCNC1 [Compound 1]", "IC50 (nM)": 0.75}
{"Compound": "O=C(O)[C@@H](Cc1cccc(CNCCN(Cc2cccc(C[C@H](C(=O)O)[C@H]3CCNC3)c2)Cc2cccc(C[C@H](C(=O)O)[C@H]3CCNC3)c2)c1)[C@H]1CCNC1 [Compound 5]", "IC50 (nM)": 0.78}
{"Compound": "O=C(O)C(F)(Cc1cccc(CN(Cc2cccc(CC(F)(C(=O)O)[C@H]3CCNC3)c2)Cc2cccc(CC(F)(C(=O)O)[C@H]3CCNC3)c2)c1)[C@H]1CCNC1 (stereo partly drawn) [Compound 3]", "IC50 (nM)": 1.4}

====

Assay: In vivo pharmacokinetic experiment on beagles
Details: male, beagle, dog, plasma, po, intragastric, 10 mg/kg, read-out: Half-life T1/2 (converted)

{"Compound": "O=C(O)[C@@H](Cc1cccc(CN(Cc2cccc(C[C@H](C(=O)O)[C@H]3CCNC3)c2)Cc2cccc(C[C@H](C(=O)O)[C@H]3CCNC3)c2)c1)[C@H]1CCNC1 [Reference 1, reference compound]", "Unit symbol": "h", "half-life": 20.7}
